Source: patent US5939419A

// reported IC50 for each item listed
ASSAYED TARGET: calcium-calmodulin dependent phosphodiesterase (CaM-PDE) (Bos taurus, UniProt P14100)
ASSAY OVERVIEW: Phosphodiesterase inhibition in vitro, calcium-calmodulin dependent phosphodiesterase (CaM-PDE), 3H-cGMP substrate
MEASUREMENT SETUP: CaM-PDE from bovine aorta; 1 μM 3H-cGMP; pH 7.5; 25 minutes at room temperature
Form entry: value (nM) — number only.

Recorded results for 5 compounds are shown here.
Cc1ccc(Cc2nc3c([nH]2)C(=O)N(C)C2=N[C@@H]4CCC[C@@H]4N23)cc1 [Example 3A]; 100
CN1C(=O)c2[nH]c(Cc3ccccc3)nc2N2C1=N[C@@H]1CCC[C@@H]12 [Example 1]; 100
CN1C(=O)c2[nH]c(Cc3ccccc3)nc2N2C1=N[C@@H]1CCC[C@@H]12 (relative stereo) [Compound A, reference compound]; 200
COc1cccc(Cc2nc3c([nH]2)C(=O)N(C)C2=N[C@@H]4CCC[C@@H]4N23)c1 [Example 3E]; 900
CN1C(=O)c2[nH]c(Cc3ccc4c(c3)OCO4)nc2N2C1=NC13CCCC1CCC23 (stereo not drawn) [Example 11]; 200

Identify measured IC50 corresponding to CN1C(=O)c2[nH]c(Cc3ccc(N4CCOCC4)cc3)nc2N2C1=N[C@@H]1CCC[C@@H]12 [Example 3C]
200

Identify measured IC50 corresponding to CC(C)[C@@H]1CN2C(=N1)N(C)C(=O)c1[nH]c(Cc3ccccc3)nc12 [Example 10]
100

Identify measured IC50 corresponding to CN1C(=O)c2[nH]c(Cc3ccc(C(F)(F)F)cc3)nc2N2C1=N[C@@H]1CCC[C@@H]12 [Example 1C]
600

Identify measured IC50 corresponding to CN1C(=O)c2[nH]cnc2N2C1=N[C@@H]1CCC[C@@H]12 (relative stereo) [Compound B, reference compound]
33000

Identify measured IC50 corresponding to CN1C(=O)c2[nH]c(Cc3ccc4c(c3)OCO4)nc2N2C1=N[C@@H]1CCC[C@@H]12 [Example 3G]
300

Identify measured IC50 corresponding to CN1C(=O)c2[nH]c(Cc3ccc4ccccc4c3)nc2N2C1=N[C@@H]1CCC[C@@H]12 [Example 6]
480

Identify measured IC50 corresponding to COc1ccc(Cc2nc3c([nH]2)C(=O)N(C)C2=N[C@@H]4CCC[C@@H]4N23)cc1 [Example 1B]
200

Identify measured IC50 corresponding to CN1C(=O)c2[nH]c(Cc3ccc(Cl)cc3)nc2N2C1=N[C@@H]1CCC[C@@H]12 [Example 7]
650

###

ASSAYED TARGET: calcium-calmodulin dependent phosphodiesterase (CaM-PDE) (Bos taurus)
ASSAY OVERVIEW: Phosphodiesterase inhibition in vitro, calcium-calmodulin dependent phosphodiesterase (CaM-PDE), 3H-cGMP substrate
MEASUREMENT SETUP: CaM-PDE from bovine aorta; 1 μM 3H-cGMP; pH 7.5; 25 minutes at room temperature
OBSERVED PROPERTY: IC50 (nM)
Form entry: value (nM) — number only.

COc1cc(Cc2nc3c([nH]2)C(=O)N(C)C2=N[C@@H]4CCC[C@@H]4N23)cc(OC)c1OC; 700
COc1ccc(Cc2nc3c([nH]2)C(=O)N(C)C2=N[C@@H]4CCC[C@@H]4N23)cc1OC; 400
CN1C(=O)c2[nH]c(Cc3ccc(OC(F)(F)F)cc3)nc2N2C1=N[C@@H]1CCC[C@@H]12; 600

Identify measured IC50 corresponding to CN1C(=O)c2[nH]c(Cc3ccc(C(F)(F)F)cc3)nc2N2C1=N[C@@H]1COC[C@@H]12
3000

###

ASSAYED TARGET: calcium-calmodulin dependent phosphodiesterase (CaM-PDE) (Bos taurus)
ASSAY OVERVIEW: Phosphodiesterase inhibition in vitro, calcium-calmodulin dependent phosphodiesterase (CaM-PDE), 3H-cGMP substrate
MEASUREMENT SETUP: CaM-PDE from bovine aorta; 1 μM 3H-cGMP; pH 7.5; 25 minutes at room temperature
// reported pIC50 for each item listed
// returns pIC50 (minus log10 of molar concentration), number only

CN1C(=O)c2[nH]c(Cc3ccccc3)nc2N2CC3(CCCC3)N=C12; 7.00
CN1C(=O)c2[nH]c(Cc3ccccc3)nc2N2CC(C)(C)N=C12; 6.52

Identify measured pIC50 corresponding to CN1C(=O)c2[nH]c(Cc3cccc(C(F)(F)F)c3)nc2N2C1=N[C@@H]1CCC[C@@H]12
6.10
